- target_or_system: Platelet-activating factor receptor (Oryctolagus cuniculus)
- assay_details: Inhibition of PAF-induced platelet aggregation in rabbit platelet rich plasma
measure_name: IC50

>  <input_smiles>
CCCCCCCCCCCCCCOc1ccc(COC(=O)NCc2cccc[n+]2CC)cc1

>  <reported_result>
> 10 µM

$$$$
>  <input_smiles>
CCCCCCCCCCCCCCCCCCNC(=O)Oc1ccc(C(=O)N(Cc2cccc[n+]2C)C(C)=O)cc1C(C)(C)C

>  <reported_result>
> 10 µM

$$$$
>  <input_smiles>
CCCCCCCCCCCCCCOc1ccc(CN(Cc2ccc[n+](C)c2)C(C)=O)cc1

>  <reported_result>
> 10 µM

$$$$
>  <input_smiles>
CCCCCCCCCCCCCCOc1ccc(C(=O)N(Cc2cccc[n+]2[O-])C(C)=O)cc1C(C)(C)C

>  <reported_result>
> 10 µM

$$$$
